Reference source for all entries: ChEMBL document CHEMBL5724806

Test: The drug is tested on Parabacteroides merdae strain: DSM19495 for biotransformation under anaerobic condition. The drug concentrations were measured over 6 timepoints collected between 0 and 12 hours of incubation by liquid-chromatography-coupled mass spectrometry (LC–MS)
Format: ADME
Design: dose 5 uM, timepoint 0, 1.5, 3, 6, 9, 12 hours
Details: 5 µM
measurement.label: Bacterial Biotransformation

compound | measurement.label | data.value
CCCC1O[C@@H]2C[C@H]3[C@@H]4CCC5=CC(=O)C=C[C@]5(C)[C@H]4[C@@H](O)C[C@]3(C)[C@]2(C(=O)CO)O1 (some centres not stated) [BUDESONIDE] | Bacterial Biotransformation | Compound NOT metabolized
COc1c(C)c2c(c(O)c1C/C=C(\C)CCC(=O)O)C(=O)OC2 | Bacterial Biotransformation | Compound NOT metabolized
C[C@H]1C[C@H]2[C@@H]3CCC4=CC(=O)C=C[C@]4(C)[C@@]3(F)[C@@H](O)C[C@]2(C)[C@@]1(O)C(=O)CO | Bacterial Biotransformation | Compound NOT metabolized
CCOc1nc2cccc(C(=O)O)c2n1Cc1ccc(-c2ccccc2-c2nnn[nH]2)cc1 | Bacterial Biotransformation | Compound NOT metabolized
C[C@]12C=CC(=O)C=C1CC[C@@H]1[C@@H]2C(=O)C[C@@]2(C)[C@H]1CC[C@]2(O)C(=O)CO | Bacterial Biotransformation | Compound NOT metabolized
COc1ccc([C@@H]2Sc3ccccc3N(CCN(C)C)C(=O)[C@@H]2OC(C)=O)cc1 | Bacterial Biotransformation | Compound metabolized
Cn1cnc([N+](=O)[O-])c1Sc1ncnc2nc[nH]c12 | Bacterial Biotransformation | Compound metabolized

###

Experiment: The drug is tested on Gemella morbillorum strain: DSM20572 for biotransformation under microaerobic condition. The drug concentrations were measured over 6 timepoints collected between 0 and 12 hours of incubation by liquid-chromatography-coupled mass spectrometry (LC–MS)
Format: ADME
Parameters: dose 5 uM, timepoint 0, 1.5, 3, 6, 9, 12 hours
Settings: 5 µM

molecule | Bacterial Biotransformation
CCOC(=O)[C@H](CCc1ccccc1)N[C@@H](C)C(=O)N1[C@H](C(=O)O)C[C@@H]2CCC[C@@H]21 | Compound NOT metabolized
C=CC[C@@H]1/C=C(\C)C[C@H](C)C[C@H](OC)[C@H]2O[C@@](O)(C(=O)C(=O)N3CCCC[C@H]3C(=O)O[C@H](/C(C)=C/[C@@H]3CC[C@@H](O)[C@H](OC)C3)[C@H](C)[C@@H](O)CC1=O)[C@H](C)C[C@@H]2OC.O | Compound NOT metabolized
C[C@]12C=CC(=O)C=C1CC[C@@H]1[C@@H]2[C@@H](O)C[C@@]2(C)[C@H]1CC[C@]2(O)C(=O)CO | Compound NOT metabolized
CN(Cc1cnc2nc(N)nc(N)c2n1)c1ccc(C(=O)N[C@@H](CCC(=O)O)C(=O)O)cc1 [METHOTREXATE] | Compound NOT metabolized
C[C@@H]1C[C@H]2[C@@H]3CCC4=CC(=O)C=C[C@]4(C)[C@@]3(F)[C@@H](O)C[C@]2(C)[C@@]1(O)C(=O)CO | Compound NOT metabolized
Cn1cnc([N+](=O)[O-])c1Sc1ncnc2nc[nH]c12 | Compound NOT metabolized
CCOc1nc2cccc(C(=O)O)c2n1Cc1ccc(-c2ccccc2-c2nnn[nH]2)cc1 | Compound NOT metabolized
C[C@]12CCC(=O)C=C1CC[C@@H]1[C@@H]2[C@@H](O)C[C@@]2(C)[C@H]1CC[C@]2(O)C(=O)CO [HYDROCORTISONE] | Compound NOT metabolized
CCC(C)(C)C(=O)O[C@H]1C[C@@H](C)C=C2C=C[C@H](C)[C@H](CC[C@@H]3C[C@@H](O)CC(=O)O3)[C@H]21 | Compound NOT metabolized
CCOC(=O)C1=C(COCCN)NC(C)=C(C(=O)OC)C1c1ccccc1Cl (stereo not given) | Compound NOT metabolized
C[C@@H](NCCCc1cccc(C(F)(F)F)c1)c1cccc2ccccc12 | Compound NOT metabolized
C[C@]12C=CC(=O)C=C1CC[C@@H]1[C@@H]2C(=O)C[C@@]2(C)[C@H]1CC[C@]2(O)C(=O)CO | Compound NOT metabolized
C[C@]12CCC(=O)C=C1CC[C@@H]1[C@@H]2C(=O)C[C@@]2(C)[C@H]1CC[C@]2(O)C(=O)CO | Compound NOT metabolized
CNC(=C[N+](=O)[O-])NCCSCc1ccc(CN(C)C)o1 | Compound NOT metabolized

###

Experiment: The drug is tested on the gut metagenome community of A-08 with ENA study accession number: PRJEB31790 for biotransformation under microaerobic condition. The drug concentrations were measured over 7 timepoints collected between 0 and 12 hours of incubation by liquid-chromatography-coupled mass spectrometry (LC–MS)
Assay type: ADME
Parameters: dose 5 uM, timepoint 0, 0.75, 1.5, 3, 6, 9, 12 hours
Conditions: 5 µM

compound | Bacterial Biotransformation
C=CC[C@@H]1/C=C(\C)C[C@H](C)C[C@H](OC)[C@H]2O[C@@](O)(C(=O)C(=O)N3CCCC[C@H]3C(=O)O[C@H](/C(C)=C/[C@@H]3CC[C@@H](O)[C@H](OC)C3)[C@H](C)[C@@H](O)CC1=O)[C@H](C)C[C@@H]2OC.O [TACROLIMUS] | Compound metabolized
CCCC1O[C@@H]2C[C@H]3[C@@H]4CCC5=CC(=O)C=C[C@]5(C)[C@H]4[C@@H](O)C[C@]3(C)[C@]2(C(=O)CO)O1 (some centres undefined) [BUDESONIDE] | Compound metabolized
C[C@]12C=CC(=O)C=C1CC[C@@H]1[C@@H]2C(=O)C[C@@]2(C)[C@H]1CC[C@]2(O)C(=O)CO [PREDNISONE] | Compound metabolized
CC(C)NCC(O)COc1ccc(CC(N)=O)cc1 (centres undefined) [ATENOLOL] | Compound NOT metabolized
CO[C@H]1C[C@@H]2CC[C@@H](C)[C@@](O)(O2)C(=O)C(=O)N2CCCC[C@H]2C(=O)O[C@H]([C@H](C)C[C@@H]2CC[C@@H](O)[C@H](OC)C2)CC(=O)[C@H](C)/C=C(\C)[C@@H](O)[C@@H](OC)C(=O)[C@H](C)C[C@H](C)/C=C/C=C/C=C/1C [SIROLIMUS] | Compound metabolized
C[C@@H]1C[C@H]2[C@@H]3CCC4=CC(=O)C=C[C@]4(C)[C@@]3(F)[C@@H](O)C[C@]2(C)[C@@]1(O)C(=O)CO [DEXAMETHASONE] | Compound metabolized
CCC(C)(C)C(=O)O[C@H]1C[C@@H](C)C=C2C=C[C@H](C)[C@H](CC[C@@H]3C[C@@H](O)CC(=O)O3)[C@H]21 [SIMVASTATIN] | Compound NOT metabolized
C[C@]12C=CC(=O)C=C1CC[C@@H]1[C@@H]2[C@@H](O)C[C@@]2(C)[C@H]1CC[C@]2(O)C(=O)CO [PREDNISOLONE] | Compound metabolized
CN(Cc1cnc2nc(N)nc(N)c2n1)c1ccc(C(=O)N[C@@H](CCC(=O)O)C(=O)O)cc1 [METHOTREXATE] | Compound metabolized

###

Assay: The drug is tested on the gut metagenome community of P-04 with ENA study accession number: PRJEB31790 for biotransformation under microaerobic condition. The drug concentrations were measured over 7 timepoints collected between 0 and 12 hours of incubation by liquid-chromatography-coupled mass spectrometry (LC–MS)
Format: ADME
Design: dose 5 uM, timepoint 0, 0.75, 1.5, 3, 6, 9, 12 hours
Settings: 5 µM

chemical.smiles | Bacterial Biotransformation
CO[C@H]1C[C@@H]2CC[C@@H](C)[C@@](O)(O2)C(=O)C(=O)N2CCCC[C@H]2C(=O)O[C@H]([C@H](C)C[C@@H]2CC[C@@H](OCCO)[C@H](OC)C2)CC(=O)[C@H](C)/C=C(\C)[C@@H](O)[C@@H](OC)C(=O)[C@H](C)C[C@H](C)/C=C/C=C/C=C/1C | Compound NOT metabolized
CCC(C)(C)C(=O)O[C@H]1C[C@@H](C)C=C2C=C[C@H](C)[C@H](CC[C@@H]3C[C@@H](O)CC(=O)O3)[C@H]21 | Compound NOT metabolized

###

Assay: The drug is tested on the gut metagenome community of P-03 with ENA study accession number: PRJEB31790 for biotransformation under anaerobic condition. The drug concentrations were measured over 7 timepoints collected between 0 and 12 hours of incubation by liquid-chromatography-coupled mass spectrometry (LC–MS)
Assay type: ADME
Parameters: dose 5 uM, timepoint 0, 0.75, 1.5, 3, 6, 9, 12 hours
Settings: 5 µM

compound | Bacterial Biotransformation
C[C@]12CCC(=O)C=C1CC[C@@H]1[C@@H]2C(=O)C[C@@]2(C)[C@H]1CC[C@]2(O)C(=O)CO | Compound metabolized
NS(=O)(=O)c1cc(C(=O)O)c(NCc2ccco2)cc1Cl [FUROSEMIDE] | Compound NOT metabolized
C[C@@H]1C[C@H]2[C@@H]3CCC4=CC(=O)C=C[C@]4(C)[C@@]3(F)[C@@H](O)C[C@]2(C)[C@@]1(O)C(=O)CO | Compound NOT metabolized
COc1c(C)c2c(c(O)c1C/C=C(\C)CCC(=O)O)C(=O)OC2 | Compound NOT metabolized
CCOC(=O)C1=C(COCCN)NC(C)=C(C(=O)OC)C1c1ccccc1Cl (centres undefined) | Compound NOT metabolized
COc1ccc([C@@H]2Sc3ccccc3N(CCN(C)C)C(=O)[C@@H]2OC(C)=O)cc1 | Compound metabolized
CN(Cc1cnc2nc(N)nc(N)c2n1)c1ccc(C(=O)N[C@@H](CCC(=O)O)C(=O)O)cc1 [METHOTREXATE] | Compound metabolized
C=CC[C@@H]1/C=C(\C)C[C@H](C)C[C@H](OC)[C@H]2O[C@@](O)(C(=O)C(=O)N3CCCC[C@H]3C(=O)O[C@H](/C(C)=C/[C@@H]3CC[C@@H](O)[C@H](OC)C3)[C@H](C)[C@@H](O)CC1=O)[C@H](C)C[C@@H]2OC.O | Compound NOT metabolized
CCOc1nc2cccc(C(=O)O)c2n1Cc1ccc(-c2ccccc2-c2nnn[nH]2)cc1 | Compound NOT metabolized
CCC(C)(C)C(=O)O[C@H]1C[C@@H](C)C=C2C=C[C@H](C)[C@H](CC[C@@H]3C[C@@H](O)CC(=O)O3)[C@H]21 | Compound NOT metabolized
C[C@H]1C[C@H]2[C@@H]3CCC4=CC(=O)C=C[C@]4(C)[C@@]3(F)[C@@H](O)C[C@]2(C)[C@@]1(O)C(=O)CO | Compound metabolized
COc1c(C)c2c(c(O)c1C/C=C(\C)CCC(=O)OCCN1CCOCC1)C(=O)OC2 [MYCOPHENOLATE MOFETIL] | Compound metabolized
CCOC(=O)[C@H](CCc1ccccc1)N[C@@H](C)C(=O)N1[C@H](C(=O)O)C[C@@H]2CCC[C@@H]21 | Compound NOT metabolized
C[C@]12C=CC(=O)C=C1CC[C@@H]1[C@@H]2C(=O)C[C@@]2(C)[C@H]1CC[C@]2(O)C(=O)CO | Compound metabolized
